Reference source for all entries: the supplement of paper PMC9112550

- Test system: Escherichia coli TOP10
- assay_explanation: shrunken log2 fold change of peptide-encoding DNA abundance (4.5 h post-induction vs induction); higher = less antimicrobial activity (less host growth inhibition)
- particulars: time post-induction: 4.5 h; library: site-saturation at positions 5, 18, 19, 20
Consider the following sequences; for each one, report its shrunken log2 fold change.

RRIRARPPRLPRPRPRPFMPPRP    -0.149
RRIRERPPRLPRPRPRPGRYPRP    -0.443
RRIRLRPPRLPRPRPRPVEWPRP    -0.228

Each of the following entries comes with a recorded value; kindly state shrunken log2 fold change for each.
1. RRIRERPPRLPRPRPRPMATPRP
2. RRIRYRPPRLPRPRPRPSDDPRP

Solution:
0.0537
-0.917

Each of the following entries comes with a recorded value; kindly state shrunken log2 fold change for each.
1. RRIRIRPPRLPRPRPRPAAQPRP
2. RRIRQRPPRLPRPRPRPKKGPRP
3. RRIRTRPPRLPRPRPRPSHYPRP
4. RRIRMRPPRLPRPRPRPRIVPRP
5. RRIRKRPPRLPRPRPRPVQLPRP
6. RRIRQRPPRLPRPRPRPAPGPRP
7. RRIRKRPPRLPRPRPRPQCTPRP
8. RRIRDRPPRLPRPRPRPHMGPRP

Solution:
1: 0.14; 2: 0.124; 3: -1.32; 4: 0.16; 5: 0.349; 6: 0.417; 7: -0.0504; 8: -0.174

Each of the following entries comes with a recorded value; kindly state shrunken log2 fold change for each.
1. RRIRLRPPRLPRPRPRPHLHPRP
2. RRIRMRPPRLPRPRPRPHVIPRP
3. RRIRRRPPRLPRPRPRPRDFPRP

Solution:
1. -0.424
2. 0.00402
3. 0.298

* * *

Consider the following sequences; for each one, report its shrunken log2 fold change.
- System: Escherichia coli TOP10
- assay_explanation: shrunken log2 fold change of peptide-encoding DNA abundance (4.5 h post-induction vs induction); higher = less antimicrobial activity (less host growth inhibition)
- particulars: time post-induction: 4.5 h; library: site-saturation at positions 5, 18, 19, 20
Give bare numbers.

RRIRDRPPRLPRPRPRPKKSPRP    0.102

Each of the following entries comes with a recorded value; kindly state shrunken log2 fold change for each.
1. RRIRGRPPRLPRPRPRPTFSPRP
2. RRIRRRPPRLPRPRPRPSNMPRP
3. RRIRNRPPRLPRPRPRPKVYPRP
4. RRIRGRPPRLPRPRPRPFPDPRP

Solution:
1: 0.162; 2: -0.311; 3: -0.406; 4: 0.0778

* * *

Consider the following sequences; for each one, report its shrunken log2 fold change.
- Tested on: Escherichia coli TOP10;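 also: peptides expressed intracellularly from a pBAD plasmid library in pooled LB shake-flask culture, induced with 0.3% L-arabinose, DNA abundance read by NGS, three biological replicates, DESeq2 with apeglm shrinkage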
- assay_explanation: shrunken log2 fold change of peptide-encoding DNA abundance (4.5 h post-induction vs induction); higher = less antimicrobial activity (less host growth inhibition)
- particulars: time post-induction: 4.5 h; library: site-saturation at positions 5, 18, 19, 20
Numbers only.

Example results:
RRIRFRPPRLPRPRPRPTCWPRP    0.0659
RRIRHRPPRLPRPRPRPWMIPRP    -0.00164
RRIRGRPPRLPRPRPRPAWSPRP    0.929
RRIRNRPPRLPRPRPRPFKAPRP    0.0407
RRIRQRPPRLPRPRPRPCMFPRP    -0.214
RRIRNRPPRLPRPRPRPAGGPRP    0.16
RRIRDRPPRLPRPRPRPNSSPRP    -0.675
RRIRQRPPRLPRPRPRPVFFPRP    0.0102

Each of the following entries comes with a recorded value; kindly state shrunken log2 fold change for each.
1. RRIRDRPPRLPRPRPRPWRNPRP
2. RRIRDRPPRLPRPRPRPMNNPRP
3. RRIRNRPPRLPRPRPRPRQCPRP
4. RRIRLRPPRLPRPRPRPHDSPRP

Solution:
1. -0.0018
2. -0.424
3. 0.0196
4. 0.0936
